Source of measurements: ChEMBL document CHEMBL1124171

experiment: Ratio of affinity towards 5-HT1 to 5-HT2 receptor
QUANTITY MEASURED: Selectivity ratio
Kindly provide the number alone.

Completed entries (count: 4):
SMILES REPRESENTATION: CN1C[C@H](CC#N)C=C2c3cccc4c3[C@@H](CN4)C[C@H]21
MEASUREMENT: 106
--
SMILES REPRESENTATION: C[C@@H]1C=C2c3cccc4[nH]cc(c34)C[C@H]2N(C)C1
MEASUREMENT: 22
--
SMILES REPRESENTATION: CN1C[C@H](CSc2ccccc2)C=C2c3cccc4c3[C@@H](CN4)C[C@H]21
MEASUREMENT: 26
--
SMILES REPRESENTATION: CN1C[C@H](CO)C=C2c3cccc4c3[C@@H](CN4)C[C@H]21
MEASUREMENT: 102

Inquiry: For the compound "C[C@@H]1C=C2c3cccc4c3[C@@H](CN4)C[C@H]2N(C)C1" , what Selectivity ratio is on record?
Reply text: 100

Inquiry: For the compound "C=C1C=C2c3cccc4c3[C@@H](CN4)C[C@H]2N(C)C1" , what Selectivity ratio is on record?
Reply text: 48

====

experiment: Ratio of affinity towards 5-HT1 to 5-HT2 receptor
QUANTITY MEASURED: Selectivity ratio
Kindly provide the number alone.

Completed entries (count: 4):
SMILES REPRESENTATION: CN1C[C@H](CSc2ccccn2)C=C2c3cccc4c3[C@@H](CN4)C[C@H]21
MEASUREMENT: 28

SMILES REPRESENTATION: C[C@H]1C=C2c3cccc4[nH]cc(c34)C[C@H]2N(C)C1
MEASUREMENT: 1

SMILES REPRESENTATION: CC1=C[C@@H]2c3cccc4c3[C@@H](CN4)C[C@H]2N(C)C1
MEASUREMENT: 14

SMILES REPRESENTATION: CN1C[C@H](CO)C=C2c3cccc4[nH]cc(c34)C[C@H]21
MEASUREMENT: 11

Inquiry: For the compound "CSC[C@@H]1C=C2c3cccc4c3[C@@H](CN4)C[C@H]2N(C)C1" , what Selectivity ratio is on record?
Reply text: 66

Inquiry: For the compound "C[C@@H]1C[C@@H]2c3cccc4c3[C@@H](CN4)C[C@H]2N(C)C1" , what Selectivity ratio is on record?
Reply text: 11
